System: HPK1
Settings: concentration: 1 μM, replicates: in singlicate; n = 1;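 also: KINOMEscan kinase panel screen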
Form field: %Inh (one value per entry).
Write the value in % as a bare number.

# annotated cases, reported %Inh shown
CN(c1ccc(NC(=O)Nc2cc(C(F)(F)F)ccc2F)cc1)c1ccnc(Nc2ccc(S(N)(=O)=O)cc2)n1 [GW809893] :: 99.4
O=C(Nc1cccc(-c2nn3ncccc3c2-c2ccnc(Nc3ccccc3)n2)c1)c1c(F)cccc1F [GSK198271] :: 43
COc1ccc(Nc2nccc(N3CCC(NC(=O)Nc4cccc(OC)c4)C3)n2)cc1 (stereo not shown) [GSK1379742] :: 56

// next entry
Given the entry CNC(=O)c1ccccc1Nc1nc(Nc2ccc(N3CCOCC3)cc2)ncc1Cl.Cl [GSK1576028] , what %Inh was observed with HPK1? 98.8

* * *

Tested on: PRKCE
Details: concentration: 1 μM, replicates: in singlicate; n = 1
Form field: %Inh (one value per entry).
Write the value in % as a bare number.

CCn1c(-c2nonc2N)nc2c(C#CC(C)(C)O)ncc(OCCCCN)c21.O=C(O)C(F)(F)F.O=C(O)C(F)(F)F :: 98
C[C@@H]1CC[C@@H](C(=O)Nc2ccccc2)CN1c1cc(-c2ccc3c(N)n[nH]c3c2)nc(N)n1 :: 6
O=C(NC1CCN(c2ccnc(Nc3ccc(F)cc3)n2)C1)c1cc2ccccc2s1 (stereo not shown) :: 2

// next entry
Which measured %Inh value corresponds to "CCS(=O)(=O)c1ccc(OC)c(Nc2nccc(-c3c(-c4cccc(NC(=O)c5c(F)cccc5F)c4)nn4ncccc34)n2)c1" ? 12

* * *

System: p38-delta
Settings: concentration: 1 μM, replicates: in singlicate; n = 1
Classification by %Inh | ranges: bottom range = under 20%, center range = from 20% up to 30%, top range = 30% and over

FC(F)(F)c1ccc(/C=C/c2cncnc2Nc2ccc3[nH]c(Cc4ccccc4)nc3c2)cc1 [GW709199] :: bottom range
COc1cc2c(cc1OCCN1CCNCC1)ncc1c3ccc(C#N)cc3[nH]c21 :: bottom range
Cl.Cl.NCC(C(=O)Nc1cc(Br)c(-c2ccnc3[nH]ccc23)s1)c1ccccc1 (stereo not shown) [GSK1269851] :: bottom range
Cl.NC(=O)c1cccc(Nc2nccc(Nc3ccc(Oc4c(Cl)cccc4Cl)c(Cl)c3)n2)c1 [GW659009] :: bottom range
Nc1n[nH]c2cnc(-c3ccccc3)cc12 [SB-642124] :: center range

Let us examine a further case.
Please classify: Cc1ccc(C(=O)Nc2ccc(Nc3ccnc4cc(-c5nccs5)ccc34)cc2O)cc1.Cl [GW494702] center range

* * *

Test system: PIM1
Conditions: concentration: 1 μM, replicates: in singlicate; n = 1
property.measured: %Inh (%)
Write the value in % as a bare number.

CN(C)Cc1ccc(-c2ccc3c(Nc4ccc(Oc5ccccn5)cc4)ccnc3c2)o1 [GW567148] :: 0
CCS(=O)(=O)c1ccc(OC)c(Nc2nccc(-c3c(-c4cccc(NC(=O)c5c(F)cccc5F)c4)nn4ncccc34)n2)c1 [GSK326180] :: 0
CC(=O)Nc1nc2cnc(Nc3cc(NC(=O)c4cccc(C5(C#N)CC5)c4Cl)ccc3C)nc2s1 :: 2
Nc1n[nH]c2cnc(-c3ccccc3)cc12 [SB-642124] :: 38
Clc1ccc(-c2nn3ncccc3c2-c2ccnc(Nc3ccc4c(c3)OCCO4)n2)cc1 [GW829116] :: 13
c1ccc(Oc2ccc(Nc3ccnc4cc(-c5ccc(CNCCN6CCOCC6)o5)ccc34)cc2)nc1 [GW567145] :: 0
COc1cccc(-c2ccc3c(NC(=O)C4CC4)n[nH]c3n2)c1 [SB-710903] :: 12

// next entry
Which measured %Inh value corresponds to CCCCc1nn2ncccc2c1-c1ccnc(Nc2ccc(N3CCN(C)CC3)cc2)n1 [GW684941] ? 0
